details: in 2-butanone, 278.15 K
Property label: solubility (mole fraction)
Just the number, please.

Request: Could you tell me which solubility (mole fraction) is on file for CC1Cc2ccccc2N1NC(=O)c1ccc(Cl)c(S(N)(=O)=O)c1 (stereo unspecified) ?
Response: 0.0155

---

conditions: in methanol, 278.15 K
Property label: solubility (mole fraction)
Just the number, please.

Request: Could you tell me which solubility (mole fraction) is on file for CC1Cc2ccccc2N1NC(=O)c1ccc(Cl)c(S(N)(=O)=O)c1 (stereo unspecified) ?
Response: 0.00524

---

conditions: in ethyl acetate, 293.15 K
Property label: solubility (mole fraction)
Just the number, please.

Request: Could you tell me which solubility (mole fraction) is on file for CC1Cc2ccccc2N1NC(=O)c1ccc(Cl)c(S(N)(=O)=O)c1 (stereo unspecified) ?
Response: 0.00165

---

conditions: in methanol, 288.15 K
Property label: solubility (mole fraction)
Just the number, please.

Request: Could you tell me which solubility (mole fraction) is on file for CC1Cc2ccccc2N1NC(=O)c1ccc(Cl)c(S(N)(=O)=O)c1 (stereo unspecified) ?
Response: 0.00877

---

conditions: in methanol, 283.15 K
Property label: solubility (mole fraction)
Just the number, please.

Request: Could you tell me which solubility (mole fraction) is on file for CC1Cc2ccccc2N1NC(=O)c1ccc(Cl)c(S(N)(=O)=O)c1 (stereo unspecified) ?
Response: 0.00676

---

conditions: in toluene, 318.15 K
Property label: solubility (mole fraction)
Just the number, please.

Request: Could you tell me which solubility (mole fraction) is on file for CC1Cc2ccccc2N1NC(=O)c1ccc(Cl)c(S(N)(=O)=O)c1 (stereo unspecified) ?
Response: 0.000106

---

settings: in methanol, 318.15 K
Property label: solubility (mole fraction)
Just the number, please.

Request: Could you tell me which solubility (mole fraction) is on file for CC1Cc2ccccc2N1NC(=O)c1ccc(Cl)c(S(N)(=O)=O)c1 (stereo unspecified) ?
Response: 0.033

---

conditions: in 2-butanone, 298.15 K
Property label: solubility (mole fraction)
Just the number, please.

Request: Could you tell me which solubility (mole fraction) is on file for CC1Cc2ccccc2N1NC(=O)c1ccc(Cl)c(S(N)(=O)=O)c1 (stereo unspecified) ?
Response: 0.0255

---

settings: in isopropanol, 288.15 K
Property label: solubility (mole fraction)
Just the number, please.

Request: Could you tell me which solubility (mole fraction) is on file for CC1Cc2ccccc2N1NC(=O)c1ccc(Cl)c(S(N)(=O)=O)c1 (stereo unspecified) ?
Response: 0.00279

---

details: in acetonitrile, 288.15 K
Property label: solubility (mole fraction)
Just the number, please.

Request: Could you tell me which solubility (mole fraction) is on file for CC1Cc2ccccc2N1NC(=O)c1ccc(Cl)c(S(N)(=O)=O)c1 (stereo unspecified) ?
Response: 0.00391

---

details: in n-propanol, 303.15 K
Property label: solubility (mole fraction)
Just the number, please.

Request: Could you tell me which solubility (mole fraction) is on file for CC1Cc2ccccc2N1NC(=O)c1ccc(Cl)c(S(N)(=O)=O)c1 (stereo unspecified) ?
Response: 0.0114

---

settings: in ethanol, 278.15 K
Property label: solubility (mole fraction)
Just the number, please.

Request: Could you tell me which solubility (mole fraction) is on file for CC1Cc2ccccc2N1NC(=O)c1ccc(Cl)c(S(N)(=O)=O)c1 (stereo unspecified) ?
Response: 0.00383

---

conditions: in cyclohexane, 283.15 K
Property label: solubility (mole fraction)
Just the number, please.

Request: Could you tell me which solubility (mole fraction) is on file for CC1Cc2ccccc2N1NC(=O)c1ccc(Cl)c(S(N)(=O)=O)c1 (stereo unspecified) ?
Response: 2.34e-06

---

details: in ethanol, 308.15 K
Property label: solubility (mole fraction)

Request: Could you tell me which solubility (mole fraction) is on file for CC1Cc2ccccc2N1NC(=O)c1ccc(Cl)c(S(N)(=O)=O)c1 (stereo unspecified) ?
Response: 0.0186

---

details: in isopropanol, 283.15 K
Property label: solubility (mole fraction)
Just the number, please.

Request: Could you tell me which solubility (mole fraction) is on file for CC1Cc2ccccc2N1NC(=O)c1ccc(Cl)c(S(N)(=O)=O)c1 (stereo unspecified) ?
Response: 0.00187

---

conditions: in cyclohexane, 293.15 K
Property label: solubility (mole fraction)
Just the number, please.

Request: Could you tell me which solubility (mole fraction) is on file for CC1Cc2ccccc2N1NC(=O)c1ccc(Cl)c(S(N)(=O)=O)c1 (stereo unspecified) ?
Response: 5.88e-06

---

conditions: in acetone, 308.15 K
Property label: solubility (mole fraction)
Just the number, please.

Request: Could you tell me which solubility (mole fraction) is on file for CC1Cc2ccccc2N1NC(=O)c1ccc(Cl)c(S(N)(=O)=O)c1 (stereo unspecified) ?
Response: 0.0402

---

conditions: in cyclohexane, 308.15 K
Property label: solubility (mole fraction)
Just the number, please.

Request: Could you tell me which solubility (mole fraction) is on file for CC1Cc2ccccc2N1NC(=O)c1ccc(Cl)c(S(N)(=O)=O)c1 (stereo unspecified) ?
Response: 2.23e-05

---

details: in n-propanol, 283.15 K
Property label: solubility (mole fraction)
Just the number, please.

Request: Could you tell me which solubility (mole fraction) is on file for CC1Cc2ccccc2N1NC(=O)c1ccc(Cl)c(S(N)(=O)=O)c1 (stereo unspecified) ?
Response: 0.00398

---

details: in acetone, 288.15 K
Property label: solubility (mole fraction)
Just the number, please.

Request: Could you tell me which solubility (mole fraction) is on file for CC1Cc2ccccc2N1NC(=O)c1ccc(Cl)c(S(N)(=O)=O)c1 (stereo unspecified) ?
Response: 0.0257

---

conditions: in isopropanol, 298.15 K
Property label: solubility (mole fraction)
Just the number, please.

Request: Could you tell me which solubility (mole fraction) is on file for CC1Cc2ccccc2N1NC(=O)c1ccc(Cl)c(S(N)(=O)=O)c1 (stereo unspecified) ?
Response: 0.00535

---

conditions: in n-propanol, 288.15 K
Property label: solubility (mole fraction)

Request: Could you tell me which solubility (mole fraction) is on file for CC1Cc2ccccc2N1NC(=O)c1ccc(Cl)c(S(N)(=O)=O)c1 (stereo unspecified) ?
Response: 0.00531

---

details: in ethanol, 303.15 K
Property label: solubility (mole fraction)
Just the number, please.

Request: Could you tell me which solubility (mole fraction) is on file for CC1Cc2ccccc2N1NC(=O)c1ccc(Cl)c(S(N)(=O)=O)c1 (stereo unspecified) ?
Response: 0.0148

---

conditions: in acetonitrile, 293.15 K
Property label: solubility (mole fraction)

Request: Could you tell me which solubility (mole fraction) is on file for CC1Cc2ccccc2N1NC(=O)c1ccc(Cl)c(S(N)(=O)=O)c1 (stereo unspecified) ?
Response: 0.00536

---

conditions: in 2-butanone, 293.15 K
Property label: solubility (mole fraction)

Request: Could you tell me which solubility (mole fraction) is on file for CC1Cc2ccccc2N1NC(=O)c1ccc(Cl)c(S(N)(=O)=O)c1 (stereo unspecified) ?
Response: 0.0225

---

conditions: in n-propanol, 313.15 K
Property label: solubility (mole fraction)
Just the number, please.

Request: Could you tell me which solubility (mole fraction) is on file for CC1Cc2ccccc2N1NC(=O)c1ccc(Cl)c(S(N)(=O)=O)c1 (stereo unspecified) ?
Response: 0.0177

---

conditions: in toluene, 293.15 K
Property label: solubility (mole fraction)

Request: Could you tell me which solubility (mole fraction) is on file for CC1Cc2ccccc2N1NC(=O)c1ccc(Cl)c(S(N)(=O)=O)c1 (stereo unspecified) ?
Response: 1.68e-05

---

settings: in cyclohexane, 278.15 K
Property label: solubility (mole fraction)
Just the number, please.

Request: Could you tell me which solubility (mole fraction) is on file for CC1Cc2ccccc2N1NC(=O)c1ccc(Cl)c(S(N)(=O)=O)c1 (stereo unspecified) ?
Response: 1.28e-06

---

settings: in methanol, 293.15 K
Property label: solubility (mole fraction)
Just the number, please.

Request: Could you tell me which solubility (mole fraction) is on file for CC1Cc2ccccc2N1NC(=O)c1ccc(Cl)c(S(N)(=O)=O)c1 (stereo unspecified) ?
Response: 0.0115

---

conditions: in toluene, 303.15 K
Property label: solubility (mole fraction)

Request: Could you tell me which solubility (mole fraction) is on file for CC1Cc2ccccc2N1NC(=O)c1ccc(Cl)c(S(N)(=O)=O)c1 (stereo unspecified) ?
Response: 3.62e-05

---

settings: in ethyl acetate, 308.15 K
Property label: solubility (mole fraction)
Just the number, please.

Request: Could you tell me which solubility (mole fraction) is on file for CC1Cc2ccccc2N1NC(=O)c1ccc(Cl)c(S(N)(=O)=O)c1 (stereo unspecified) ?
Response: 0.00464

---

settings: in cyclohexane, 303.15 K
Property label: solubility (mole fraction)
Just the number, please.

Request: Could you tell me which solubility (mole fraction) is on file for CC1Cc2ccccc2N1NC(=O)c1ccc(Cl)c(S(N)(=O)=O)c1 (stereo unspecified) ?
Response: 1.45e-05

---

conditions: in ethanol, 288.15 K
Property label: solubility (mole fraction)
Just the number, please.

Request: Could you tell me which solubility (mole fraction) is on file for CC1Cc2ccccc2N1NC(=O)c1ccc(Cl)c(S(N)(=O)=O)c1 (stereo unspecified) ?
Response: 0.00709
